tested on: analgesia and inflammation; assay: topical administration to human: analgesia and inflammation; assay type: in vivo; conditions: Example VI, 0.4 ml to 80 cm^2 of forearm of 60 kg human

[
  {
    "compound": "CCCCC/C=C\\C/C=C\\C/C=C\\C/C=C\\CCCC(=O)NCc1ccc(O)c(OC)c1",
    "reduction of inflammation": "reduces inflammation"
  },
  {
    "compound": "CC/C=C\\C/C=C\\C/C=C\\CCCCCCCC(=O)NCc1ccc(O)c(OC)c1 [N-vanillyl-9Z,12Z,15Z-octadecatrienamide]",
    "reduction of inflammation": "reduces inflammation"
  }
]
